tested on: human PKK mRNA; test: Dose-dependent antisense inhibition of human PKK in HepaRG cells, 0.12-10.00 uM (Example 4); type: cell-based; conditions: Table 32, 0.12 μM, electroporation, ~16 h
Strand notation (5' to 3'): a small letter for the sugar, then the base; units joined by * are phosphorothioate-linked, units joined directly phosphodiester-linked; [ ] holds rarer units or linkages, { } end groups; capitals alone tell only the bases. e = 2'-O-(2-methoxyethyl) (MOE); [5mC] = 5-methylcytosine; d = 2'-deoxy (DNA)
Entries and their percent inhibition of PKK at 0.12 μM values follow.
Dear colleague, please return just the value in %, with no unit written.

Worked cases, percent inhibition of PKK at 0.12 μM given:
* 530971 (antisense eG*eG*eA*eA*e[5mC]*dT*dT*dG*dG*dT*dG*dT*dG*d[5mC]*d[5mC]*eA*e[5mC]*eT*eT*eT) [compound 530971] | 12
* 530970 (antisense eT*eT*eG*eG*eT*dG*dT*dG*d[5mC]*d[5mC]*dA*d[5mC]*dT*dT*dT*e[5mC]*eA*eG*eA*eT) [compound 530970] | 1
* 531078 (eA*eG*e[5mC]*eA*eG*d[5mC]*dT*d[5mC]*dT*dG*dA*dG*dT*dG*d[5mC]*eA*e[5mC]*eT*eG*eT; antisense) [compound 531078] | 10
* 531005 (e[5mC]*eT*e[5mC]*eA*eA*dA*dG*dA*dG*dT*dA*dA*d[5mC]*d[5mC]*dA*eG*eA*eG*e[5mC]*eT; antisense) [compound 531005] | 14
* 486847 (antisense eA*eG*eG*e[5mC]*eA*dT*dA*dT*dT*dG*dG*dT*dT*dT*dT*eT*eG*eG*eA*eA) [compound 486847] | 0
* 531004 (eA*eG*eA*eG*eT*dA*dA*d[5mC]*d[5mC]*dA*dG*dA*dG*d[5mC]*dT*e[5mC]*e[5mC]*e[5mC]*eT*eT; antisense) [compound 531004] | 0

Q: Item 530933 (antisense eT*eG*eG*eA*eG*dG*dT*dG*dA*dG*dT*d[5mC]*dT*d[5mC]*dT*eT*eG*eT*e[5mC]*eA) [compound 530933] has what recorded percent inhibition of PKK at 0.12 μM?
A: 15

Q: Entry 530959 (antisense eT*e[5mC]*eA*eA*e[5mC]*dA*d[5mC]*dT*dG*d[5mC]*dT*dA*dA*d[5mC]*d[5mC]*eT*eT*eA*eG*eA) [compound 530959] : reported percent inhibition of PKK at 0.12 μM = ?
A: 12

Q: # input substance: 531231 (eT*eA*eT*e[5mC]*eA*d[5mC]*dT*dG*dT*dA*d[5mC]*dT*dA*dG*dT*eT*eT*e[5mC]*e[5mC]*eT) [compound 531231] ; wanted: its percent inhibition of PKK at 0.12 μM
A: 23

Q: Reported percent inhibition of PKK at 0.12 μM, substance 530992 (eG*eT*e[5mC]*eA*e[5mC]*dA*dT*dT*d[5mC]*dA*dA*dT*dT*d[5mC]*dT*eT*e[5mC]*eT*e[5mC]*e[5mC]; antisense) [compound 530992] : ____
A: 0
